Values from patent US20150158934A1

- target_desc: T1, gp140UG37 (subtype A), gp140 envelope glycoprotein from the HIV-1 group M A-clade isolate 92UG037 (HIV-1)
- T1 construct: also called UG037 gp140/420 (A); gp140-UG037
- measurement_protocol: SPR
value_type: Kd (nM)
Note: unit nM is implicit; provide only the numeric part.

Take a look at these entries with their results.
L8Cj3 (VHH, 207 chosen because J3r is said to carry S82aN against L8Cj3; also called L8CjJ3; L9Cj3) VHH: EVQLVESGGGLVQAGGFLRLSCELRGSIFNQYAMAWFRQAPGKEREFVAGMGAVPHYGEFVKGRFTISRDNAKSTVYLQMSSLKPEDTAIYFCARSKSTYISYNSNGYDYWGRGTQVTVSS
0.00702
L91B5 (VHH, Purified by IMAC) VHH: EVQLVESGGGLVQPGGSLRLSCAASGATFDDYAIGWFRQAPGKEREGVSYIGCNDGATYYAGSVKGRFTISCDYAKNTVYLQMNSLKPEDTAVYYCAAAAQWATIRWIHEYDYNIWGQGTQVTVSS
0.174
L91F10 (VHH, Purified by IMAC; tags not written into the chain) VHH: EVQLVESGGGLVQPGGSLTLSCVASGFTLDGYAIGWFRQAPGKEVESVSCITGRHGTIYYADSVMGRFTISRDNAKSTVYLQMNSLKPEDTAVYYCAADGFDTPCVAGTDWQYDYWGQGTQVTVSS
3.98

Query: # Kd lookup, item L92E7 (VHH, Purified by IMAC; tags not written into the chain) VHH: EVQLVESGGGLVQPGGSLRLSCAASGNIVSIDAAGWFRQAPGKQREPVATILTGGATNYADSVKGRFTISRDNAKNTVYLQMSSLKPEDTAVYYCYAPMIYYGGRYSDYWGQGTQVTVSS
Reply: 11.2

Query: Now consider L82B4F (VHH, Family member of L81H9; tags not written into the chain) VHH: EVQLVESGGGLVQAGGSLRLSCAASGFTSDDYAIGWFRRAPGKEREGVSYISIEDGSTYSADSVKGRFTISSDYAKNTVYLQMNGLKPEDTAVYYCAAAILGDSVRWLQEYDYDYWGQGTQVTVSS and answer again.
Reply: 0.0031

Query: Now consider L91H9 (VHH, Purified by IMAC; tags not written into the chain) VHH: EVQLVESGGGLVQAGGSLRLSCAVSGATFDDYAIGWFRQAPGKEREGVSYIGCNDGSTYYAGSVKGRFTISCDYAKNTVYLQMNSLKPEDTAVYYCAAAAQWATIRWIHEYDYDTWGQGTQVTVSS and answer again.
Reply: 0.0102
